System: HCT116
Assay: MTT antiproliferative assay, HCT116
Conditions: Homo sapiens, HCT-116, 72 h, read-out: IC50 HCT116
# Lookup of reported pIC50 keyed by entry
Just the number, please; pIC50 means minus log10 of the concentration in mol/L.

Reference set (5 entries):
CC(C)=CCC12OC(C)(C)C3CC(C=C4C(=O)c5c(cccc5OS(C)(=O)=O)OC431)C2=O (stereo not drawn); 5.67
COc1cccc2c1C(=O)c1c(O)c3c(c(O)c1C2=O)C[C@@](O)(C(=O)CO)C[C@@H]3O[C@H]1C[C@H](N)[C@H](O)[C@H](C)O1 [Doxorubicin, reference compound]; 6.40
CC(C)=CCC[C@]1(C)C=Cc2c(O)c3c(c(CC=C(C)C)c2O1)O[C@]12C(=C[C@@H]4C[C@H]1C(C)(C)O[C@@]2(C/C=C(/C)C(=O)O)C4=O)C3=O [GA, gambogic acid, reference compound]; 6.47
CC(C)=CCC12OC(C)(C)C3CC(C=C4C(=O)c5c(OC(=O)N(C(C)C)C(C)C)cccc5OC431)C2=O (stereo not drawn); 5.35
CC(C)=CCC12OC(C)(C)C3CC(C=C4C(=O)c5c(O)cccc5OC431)C2=O (stereo not drawn) [DDO-6101, reference compound]; 6.15

Record CC(C)=CCC12OC(C)(C)C3CC(C=C4C(=O)c5c(OC(=O)N6CCCCC6)cccc5OC431)C2=O (stereo not drawn) . Reported pIC50: 5.99

* * *

Measured pIC50 by item
Tested on: A549/taxol
Assay: MTT antiproliferative assay, Taxol-resistant A549
Assay type: cell-based
Settings: MTT, 72 h; Taxol-resistant A549; read-out: IC50 A549/taxol
Please express pIC50 as -log10 of the molar concentration.

# example entries with known answers
CC(C)=CCC12OC(C)(C)C3CC(C=C4C(=O)c5c(OC(=O)N6CCCC6)cccc5OC431)C2=O (stereo not drawn) [Compound 8e]; 4.91
CC(C)=CCC12OC(C)(C)C3CC(C=C4C(=O)c5c(OC(=O)N(CCO)CCO)cccc5OC431)C2=O (stereo not drawn) [Compound 8j]; 5.37
CC(C)=CCC12OC(C)(C)C3CC(C=C4C(=O)c5c(O)cccc5OC431)C2=O (stereo not drawn) [DDO-6101, reference compound]; 6.34
CC(C)=CCC12OC(C)(C)C3CC(C=C4C(=O)c5c(OC(=O)N6CCSC6)cccc5OC431)C2=O (stereo not drawn) [Compound 8i]; 6.09
CC(C)=CCC12OC(C)(C)C3CC(C=C4C(=O)c5c(OC(=O)N6CCOCC6)cccc5OC431)C2=O (stereo not drawn) [Compound 8d]; 6.28

API: the following record is the query input.
Please fill in: pIC50 reported for COc1cccc2c1C(=O)c1c(O)c3c(c(O)c1C2=O)C[C@@](O)(C(=O)CO)C[C@@H]3O[C@H]1C[C@H](N)[C@H](O)[C@H](C)O1 [Doxorubicin, reference compound] = 6.62

* * *

Assay: Water solubility by HPLC
Type: physicochemical
Conditions: water, thermodynamic from solid
Quantity: solubility

Reported solubility for CC(C)=CCC[C@]1(C)C=Cc2c(O)c3c(c(CC=C(C)C)c2O1)O[C@]12C(=C[C@@H]4C[C@H]1C(C)(C)O[C@@]2(C/C=C(/C)C(=O)O)C4=O)C3=O [GA, gambogic acid, reference compound] was < 5 µM
